- Test system: pERK, SW620 cells
- ASSAY_OVERVIEW: Phospho-ERK inhibition, AlphaLISA p-ERK 1/2, SW620
- Type: cell-based, human
- EXPERIMENTAL_CONTEXT: Homo sapiens, SW-620; Table D-2; SW620 (KRAS-G12V)
MEASURED_QUANTITY: IC50

QUERY: Suppose we examine the compound Cc1ccc2c(Nc3cccc(Cl)c3F)nccc2c1NC(=O)c1csc2c(N)ncnc12 [Belvarafenib, reference compound] ; what IC50 value has been reported?
RESULT: 30 to 300 nM

---

Reported IC50 values for a set of compounds
- MEASUREMENT_TARGET: CRAF (Homo sapiens)
- Construct: fused on or other part: GST tag (N-terminal according to the vendor's product)
- Sequence (P04049 whole entry Y340E/Y341E, form open, the tested form may be a part): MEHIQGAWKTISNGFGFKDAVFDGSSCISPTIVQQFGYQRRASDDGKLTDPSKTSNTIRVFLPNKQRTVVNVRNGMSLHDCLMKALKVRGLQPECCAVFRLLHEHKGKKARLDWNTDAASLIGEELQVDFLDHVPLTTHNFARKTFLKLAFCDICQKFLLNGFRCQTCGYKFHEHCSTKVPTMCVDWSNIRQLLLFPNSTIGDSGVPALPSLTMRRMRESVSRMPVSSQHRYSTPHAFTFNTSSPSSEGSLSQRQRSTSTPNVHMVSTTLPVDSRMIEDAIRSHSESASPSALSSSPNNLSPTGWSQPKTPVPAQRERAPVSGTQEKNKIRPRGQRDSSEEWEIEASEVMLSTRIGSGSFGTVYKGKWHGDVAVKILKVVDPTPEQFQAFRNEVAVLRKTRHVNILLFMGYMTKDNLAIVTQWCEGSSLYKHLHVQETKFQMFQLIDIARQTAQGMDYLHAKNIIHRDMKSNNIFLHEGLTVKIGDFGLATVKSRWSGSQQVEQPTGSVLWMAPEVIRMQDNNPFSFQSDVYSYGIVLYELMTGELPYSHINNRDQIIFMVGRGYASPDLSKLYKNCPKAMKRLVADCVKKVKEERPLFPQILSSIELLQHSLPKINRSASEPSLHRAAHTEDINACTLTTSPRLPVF
- ASSAY_OVERVIEW: CRAF kinase activity assay (ADP-Glo)
- Format: biochemical
- EXPERIMENTAL_CONTEXT: Table 3; 10 μM ATP, kinase-dead MEK1 substrate

Reference set, count: 5
O=C(c1cn(-c2nc3c(Nc4c(F)ccc(NS(=O)(=O)c5cccc(Cl)c5Cl)c4F)ncnc3s2)c2ccccc12)N1CCC2CCCCC2(O)C1 (stereo not shown) [Example 89]; > 50 nM
CS(=O)(=O)c1cn(-c2nc3c(Nc4c(F)ccc(NS(=O)(=O)c5cccc(Cl)c5Cl)c4F)ncnc3s2)c2ccccc12 [Example 72]; < 10 nM
CN(C)CCN(C)S(=O)(=O)c1cn(-c2nc3c(Nc4c(F)ccc(NS(=O)(=O)c5cccc(Cl)c5Cl)c4F)ncnc3s2)c2ccccc12 [Example 41]; < 10 nM
Cc1c(F)cccc1S(=O)(=O)Nc1ccc(F)c(Nc2ncnc3sc(-n4cnc5c(F)cccc54)nc23)c1F [Example 35]; < 10 nM
COCCN(C)C(=O)c1cn(-c2nc3c(Nc4c(F)ccc(NS(=O)(=O)c5cccc(F)c5C)c4F)ncnc3s2)c2ccccc12 [Example 43]; < 10 nM

QUERY: Suppose we examine the compound CC(C)(O)[C@@H]1CCN(C(=O)c2cn(-c3nc4c(Nc5c(F)ccc(NS(=O)(=O)c6cccc(Cl)c6Cl)c5F)ncnc4s3)c3ccccc23)C1 [Example 90] ; what IC50 value has been reported?
RESULT: < 10 nM

QUERY: Suppose we examine the compound CC1(O)CN(C(=O)c2cn(-c3nc4c(Nc5c(F)ccc(NS(=O)(=O)c6cccc(Cl)c6Cl)c5F)ncnc4s3)c3ccccc23)C1 [Example 94] ; what IC50 value has been reported?
RESULT: < 10 nM

QUERY: Suppose we examine the compound O=C(c1cn(-c2nc3c(Nc4c(F)ccc(NS(=O)(=O)c5cccc(Cl)c5Cl)c4F)ncnc3s2)c2cccc(F)c12)N1C2CCC1COC2 [Example 93] ; what IC50 value has been reported?
RESULT: < 10 nM

QUERY: Suppose we examine the compound Cc1c(Cl)cccc1S(=O)(=O)Nc1ccc(F)c(Nc2ncnc3sc(-n4cnc5c(N)cccc54)nc23)c1F [Example 5] ; what IC50 value has been reported?
RESULT: < 10 nM

QUERY: Suppose we examine the compound CN(Cc1cccnc1)C(=O)c1cn(-c2nc3c(Nc4c(F)ccc(NS(=O)(=O)c5cccc(Cl)c5Cl)c4F)ncnc3s2)c2ccccc12 [Example 46] ; what IC50 value has been reported?
RESULT: < 10 nM

QUERY: Suppose we examine the compound Cc1c(Cl)cccc1S(=O)(=O)Nc1ccc(F)c(Nc2ncnc3sc(-n4cnc5c(C(C)(C)C#N)cccc54)nc23)c1F [Example 116] ; what IC50 value has been reported?
RESULT: 10 to 50 nM

QUERY: Suppose we examine the compound Cc1c(F)cccc1S(=O)(=O)Nc1ccc(F)c(Nc2ncnc3sc(-n4cc(C(=O)N(C)Cc5ccncc5)c5ccccc54)nc23)c1F [Example 30] ; what IC50 value has been reported?
RESULT: 10 to 50 nM

QUERY: Suppose we examine the compound Cc1c(F)cccc1S(=O)(=O)Nc1ccc(F)c(Nc2ncnc3sc(-n4cnc5ccccc54)nc23)c1F [Example 7] ; what IC50 value has been reported?
RESULT: < 10 nM
